Data provenance: BigSolDB 2.1

conditions: in n-propanol, 313.15 K
MEASURED_METRIC: solubility (mole fraction)
Just the number, please, no unit after it.

Exercise: Quick one: solubility (mole fraction) for C[C@@H](O)[C@H]1C(=O)N2C(C(=O)[O-])=C(SC3Cn4cnc[n+]4C3)[C@H](C)[C@H]12 (stereo partly specified) ?
Key: 3.19e-05

---

conditions: in methanol, 303.15 K
MEASURED_METRIC: solubility (mole fraction)
Enter a number only.

Exercise: # input molecule: C[C@@H](O)[C@H]1C(=O)N2C(C(=O)[O-])=C(SC3Cn4cnc[n+]4C3)[C@H](C)[C@H]12 (stereo partly specified) ; wanted: its solubility (mole fraction)
Key: 3.57e-05
